testSystem: Thyrotropin receptor (Homo sapiens) (UniProt P16473)
Sequence (P16473 whole entry, looked up): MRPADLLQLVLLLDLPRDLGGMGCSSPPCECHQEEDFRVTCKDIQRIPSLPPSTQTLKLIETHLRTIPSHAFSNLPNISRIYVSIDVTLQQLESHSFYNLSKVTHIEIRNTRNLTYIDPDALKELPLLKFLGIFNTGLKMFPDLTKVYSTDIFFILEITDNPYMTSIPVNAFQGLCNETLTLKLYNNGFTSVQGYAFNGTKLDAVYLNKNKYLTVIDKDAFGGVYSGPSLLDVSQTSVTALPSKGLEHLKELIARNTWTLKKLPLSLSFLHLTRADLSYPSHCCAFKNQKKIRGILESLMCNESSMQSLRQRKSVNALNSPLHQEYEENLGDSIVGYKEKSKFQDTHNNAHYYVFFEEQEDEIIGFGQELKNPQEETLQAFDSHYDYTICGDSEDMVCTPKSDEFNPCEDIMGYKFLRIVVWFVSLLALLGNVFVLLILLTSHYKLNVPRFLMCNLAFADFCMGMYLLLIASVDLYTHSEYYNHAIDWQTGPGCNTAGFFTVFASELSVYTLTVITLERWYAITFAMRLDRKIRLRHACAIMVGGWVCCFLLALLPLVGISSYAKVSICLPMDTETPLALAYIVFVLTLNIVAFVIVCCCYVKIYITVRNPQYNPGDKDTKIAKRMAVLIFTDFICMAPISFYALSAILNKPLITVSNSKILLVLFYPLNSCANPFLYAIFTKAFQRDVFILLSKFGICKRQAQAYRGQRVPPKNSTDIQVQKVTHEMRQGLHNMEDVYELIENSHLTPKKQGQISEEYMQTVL
procedureDetails: qHTS assay to identify small molecule agonists of the thyroid stimulating hormone receptor (TSHR) signaling pathway (AID 1224843); further: on the % scale 0 is the no-effect control and ±100 the full control effect; nearly all actives have a fitted effect of over 45% in size
experimentalConditions: TSHR-HEK293 cells, cAMP HTRF, agonist mode, 30 min; series mostly up to 92.4 µM
Inconclusive results are not listed. The source made the active and inactive calls. The call rests on the fitted dose curve.
endpoint: activation

The following compounds have reported results that may help.
Req: Would you kindly share the measured activation for "CCCCCCCCCCCCCCCCCCOCCO" ?
Resp: -2.81% [at 19 µM] (inactive)

Req: Would you kindly share the measured activation for "O=S(=O)(O)c1ccc2c(N=Nc3ccc(S(=O)(=O)O)c4ccccc34)c(O)c(S(=O)(=O)O)cc2c1" ?
Resp: 3.55% [at 8.39 µM] (inactive)

Req: Would you kindly share the measured activation for "O=NN(CCCl)C(=O)NC1CCCCC1" ?
Resp: inactive

Req: Would you kindly share the measured activation for "O=C1NC(c2ccccc2)(c2ccccc2)C(=O)N1COP(=O)(O)O" ?
Resp: inactive

Req: Would you kindly share the measured activation for "Cc1ccnc(N)c1" ?
Resp: inactive

Req: Would you kindly share the measured activation for "CC(=O)Nc1ccc(OC(=O)c2ccccc2OC(C)=O)cc1" ?
Resp: inactive

New cases:
Req: Would you kindly share the measured activation for "OC1(c2ccc(Cl)cc2)CCNCC1" ?
Resp: inactive

Req: Would you kindly share the measured activation for "O=C1OCCO1" ?
Resp: inactive

Req: Would you kindly share the measured activation for "C/C=C(\C)C(C)=O" ?
Resp: inactive

Req: Would you kindly share the measured activation for "CCn1cc(C(=O)O)c(=O)c2cnc(N3CCCC3)nc21" ?
Resp: -1.79% [at 8.39 µM] (inactive)

Req: Would you kindly share the measured activation for "O=C(Cl)c1ccccc1[N+](=O)[O-]" ?
Resp: inactive

Req: Would you kindly share the measured activation for CCOc1ccccc1OCC1CNCCO1 (stereo unspecified) ?
Resp: inactive

* * *

procedureDetails: qHTS assay for small molecule disruptors of the mitochondrial membrane potential - cell viability (AID 720634);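 further: human HepG2 liver cancer cells; on the % scale 0 is the no-effect control and ±100 the full control effect; nearly all actives have a fitted effect of over 20% in size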
experimentalConditions: HepG2 viability, ATP luminescence (CellTiter-Glo), 1 h; series mostly up to 83.2 µM
Records with an inconclusive call do not appear. The source made the active and inactive calls. The call rests on the fitted dose curve.
endpoint: activity change, negative = cytotoxicity

Req: Would you kindly share the measured activity change, negative = cytotoxicity for CC1=C(O)C(=O)C(C)O1 (stereo not given) ?
Resp: inactive

Req: Would you kindly share the measured activity change, negative = cytotoxicity for CC(=O)O[C@@H]1CC2CCC1(C)C2(C)C (stereo not given in full) ?
Resp: inactive

Req: Would you kindly share the measured activity change, negative = cytotoxicity for "Nc1nc(-c2ccccc2)c(Br)c(=O)[nH]1" ?
Resp: inactive

Req: Would you kindly share the measured activity change, negative = cytotoxicity for "CCCCCCCCCCCCCCCCCC#N" ?
Resp: inactive

Req: Would you kindly share the measured activity change, negative = cytotoxicity for CN(C)CCCO[C@@H]1[C@H]2OC(C)(C)O[C@H]2O[C@@H]1C(O)CO (stereo not given in full) ?
Resp: inactive

Req: Would you kindly share the measured activity change, negative = cytotoxicity for "CC(=O)OCC(=O)Nc1cc(C#N)cc(NC(=O)COC(C)=O)c1Cl" ?
Resp: inactive

New cases:
Req: Would you kindly share the measured activity change, negative = cytotoxicity for "O=C(CCCCC(=O)Nc1c(I)cc(I)c(C(=O)O)c1I)Nc1c(I)cc(I)c(C(=O)O)c1I" ?
Resp: inactive

Req: Would you kindly share the measured activity change, negative = cytotoxicity for "CCc1occc(=O)c1O" ?
Resp: inactive

* * *

procedureDetails: qHTS assay for small molecule agonists of the p53 signaling pathway - cell viability (AID 651633);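 further: p53RE-bla HCT reporter cells with a stable beta-lactamase p53 reporter; on the % scale 0 is the no-effect control and ±100 the full control effect; nearly all actives have a fitted effect of over 30% in size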
experimentalConditions: p53RE-bla HCT-116 viability, ATP luminescence, 16 h; series mostly up to 83.3 µM
Records with an inconclusive call do not appear. Calls of active or inactive are those of the source. Calls come from the whole dose curve.
endpoint: outcome

The following molecules have reported results that may help.
Req: Would you kindly share the measured outcome for "CCO[Si](CC)(OCC)OCC" ?
Resp: inactive

Req: Would you kindly share the measured outcome for CCCCCCCCCCCCCCC(=O)NC(CO)CCCCCCCCCCCCCC (configuration not stated) ?
Resp: inactive

Req: Would you kindly share the measured outcome for OC[C@@H](O)C(O)[C@@H](O)CO (some centres not stated) ?
Resp: inactive

Req: Would you kindly share the measured outcome for "CC(C)CCOC(=O)c1ccccc1" ?
Resp: inactive

Req: Would you kindly share the measured outcome for "C=C(C)[C@@H]1CC=C(C)C(=O)C1" ?
Resp: inactive

Req: Would you kindly share the measured outcome for "COC(=O)/C=C\C(=O)O" ?
Resp: inactive

Req: Would you kindly share the measured outcome for CC(C)(CO)C(O)C(=O)NCCCO (configuration not stated) ?
Resp: inactive

Req: Would you kindly share the measured outcome for "CCc1occc(=O)c1O" ?
Resp: inactive

Req: Would you kindly share the measured outcome for "C[C@H]1[C@@H](c2ccccc2)NC(=O)N1C" ?
Resp: inactive

Req: Would you kindly share the measured outcome for "NCc1ccc(S(N)(=O)=O)cc1" ?
Resp: inactive

New cases:
Req: Would you kindly share the measured outcome for "OCCN1CCOCC1" ?
Resp: inactive

Req: Would you kindly share the measured outcome for "Nc1nnnn1-c1ccccc1" ?
Resp: inactive

Req: Would you kindly share the measured outcome for "N#Cc1ccccc1O" ?
Resp: inactive

Req: Would you kindly share the measured outcome for "CN(C)CC/C=C1/c2ccccc2COc2ccc(CC(=O)O)cc21" ?
Resp: inactive

Req: Would you kindly share the measured outcome for "Cc1cc(C)c(C(=O)O)c(C)c1" ?
Resp: inactive

Req: Would you kindly share the measured outcome for "CCO" ?
Resp: inactive

Req: Would you kindly share the measured outcome for CCCCOC(=O)C(C)O (configuration not stated) ?
Resp: inactive

* * *

testSystem: Progesterone receptor (Homo sapiens)
procedureDetails: qHTS assay to identify small molecule agonists of the progesterone receptor (PR) signaling pathway (AID 1346784); further: on the % scale 0 is the no-effect control and ±100 the full control effect; nearly all actives have a fitted effect of over 30% in size
experimentalConditions: PR-UAS-bla HEK293T, beta-lactamase FRET ratio, 16 h; series mostly up to 92.4 µM
Records with an inconclusive call do not appear. Calls of active or inactive are those of the source. Calls follow the shape of the full dose curve. Where a SMILES comes first, the peptide text is derived from it.
endpoint: activation

The following compounds have reported results that may help.
Req: Would you kindly share the measured activation for CCCCCCC1(C)CCC(=O)O1 (centres undefined) ?
Resp: inactive

Req: Would you kindly share the measured activation for "CCOCCOCC" ?
Resp: inactive

Req: Would you kindly share the measured activation for CCCCCCCCCCCCCCC(=O)NC(CO)CCCCCCCCCCCCCC (centres undefined) ?
Resp: inactive

Req: Would you kindly share the measured activation for CC(=O)C1C(=O)C=C(C)OC1=O (centres undefined) ?
Resp: inactive

Req: Would you kindly share the measured activation for CC(C)NCC(O)c1ccc2ccccc2c1 (centres undefined) ?
Resp: inactive

Req: Would you kindly share the measured activation for Cc1ncc([N+](=O)[O-])n1CC(C)O (centres undefined) ?
Resp: inactive

Req: Would you kindly share the measured activation for "CC(C)NC(=O)c1ccc(C=O)cc1" ?
Resp: inactive

Req: Would you kindly share the measured activation for CCCCC1CCC(O)CC1 (centres undefined) ?
Resp: inactive

Req: Would you kindly share the measured activation for "CCCC(=O)OC/C=C(\C)CCC=C(C)C" ?
Resp: inactive

Req: Would you kindly share the measured activation for "CC(C)=CCC[C@@](C)(O)[C@H]1CC=C(C)CC1" ?
Resp: inactive

New cases:
Req: Would you kindly share the measured activation for "COC(=O)c1cccc(Cl)c1" ?
Resp: inactive

Req: Would you kindly share the measured activation for "COC(=O)/C=C\C(=O)O" ?
Resp: inactive

Req: Would you kindly share the measured activation for "CCNC(=O)NCc1cccc(Cl)c1" ?
Resp: inactive

Req: Would you kindly share the measured activation for CC(=O)N[C@@H](CO)C(=O)N[C@@H](CC(=O)O)C(=O)N[C@@H](CCCCN)C(=O)N1CCC[C@H]1C(=O)O (Ac-SDKP-OH) ?
Resp: inactive

* * *

procedureDetails: qHTS assay to identify small molecule HDAC inhibitors (AID 1259364);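 further: wild-type HCT-116 cells with endogenous class I/II HDAC activity; nearly all actives have a fitted effect of over 45% in size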
experimentalConditions: HCT-116 HDAC-Glo I/II luminescence, 2 h; series mostly up to 92.4 µM
Inconclusive results are not listed. Activity calls are given as the source filed them. The call rests on the fitted dose curve; in most records, active means well fitted inhibition curve with a large enough effect in the repeat runs; inconclusive means weak or mixed curves; inactive means flat fitted curve, though single readings scatter. Positions of bridges follow the written chain, without caps; N, C: chain ends. Non-standard residues stand in square brackets, D forms with d. Residues, ends and D or L forms follow the SMILES beside them. hArg = N=C(N)NCCCC[C@H](N)C(=O)O; Mpa = O=C(O)CCS
Write down the outcome that applies. Available outcomes: 1 = active, 0 = inactive

Req: Lab log entry: "CN(C)CCN(C)CCO" — outcome as called in the assay?
Resp: 0

Req: Lab log entry: CC(S)C(C)S (stereo not given) — outcome as called in the assay?
Resp: 0

Req: Lab log entry: "C=C(C)[C@@H]1CC=C(C)C(=O)C1" — outcome as called in the assay?
Resp: 0

New cases:
Req: Lab log entry: CCCCCCCCCCCCCCC(=O)NC(CO)CCCCCCCCCCCCCC (stereo not given) — outcome as called in the assay?
Resp: 0

Req: Lab log entry: CCC(C)OC(C)CC (stereo not given) — outcome as called in the assay?
Resp: 0

Req: Lab log entry: "O=C(O)CNC(=O)CNC(=O)CNC(=O)CSC(=O)c1ccccc1" — outcome as called in the assay?
Resp: 0

Req: Lab log entry: "CCCCSCCCC" — outcome as called in the assay?
Resp: 0

Req: Lab log entry: "C=CCCCC" — outcome as called in the assay?
Resp: 0

Req: Lab log entry: "CC(C)NC(=O)c1ccc(C=O)cc1" — outcome as called in the assay?
Resp: 0

Req: Lab log entry: "C=CC/C=C/C" — outcome as called in the assay?
Resp: 0

Req: Lab log entry: O=C(O)CSCC(=O)NC1CCSC1=O (stereo not given) — outcome as called in the assay?
Resp: 0

Req: Lab log entry: NC(=O)[C@@H]1CSSCCC(=O)N[C@@H](CCCCN=C(N)N)C(=O)NCC(=O)N[C@@H](CC(=O)O)C(=O)N[C@@H](Cc2c[nH]c3ccccc23)C(=O)N2CCC[C@H]2C(=O)N1 ([Mpa][hArg]GDWPC-NH2; disulfide 1-7) — outcome as called in the assay?
Resp: 0

Req: Lab log entry: "N#CCC(=O)NN" — outcome as called in the assay?
Resp: 0

Req: Lab log entry: CC(=O)C1C(=O)C=C(C)OC1=O (stereo not given) — outcome as called in the assay?
Resp: 0

Req: Lab log entry: CC(C)NCC(O)c1ccc2ccccc2c1 (stereo not given) — outcome as called in the assay?
Resp: 0

Req: Lab log entry: "CC(=O)Nc1ccc(OC(=O)c2ccccc2OC(C)=O)cc1" — outcome as called in the assay?
Resp: 1
